# maps each entry to its Kd
- TEST SYSTEM: T1, recombinant human activated Factor VII (FVIIa) (human, UniProt P08709 61-212; P08709 213-466, ten glutamate residues of the Gla domain may be gamma-carboxylated)
- T1 construct: chains tethered by a disulfide bond; also called Factor VIIa; rFVIIa
- T1 sequence 1: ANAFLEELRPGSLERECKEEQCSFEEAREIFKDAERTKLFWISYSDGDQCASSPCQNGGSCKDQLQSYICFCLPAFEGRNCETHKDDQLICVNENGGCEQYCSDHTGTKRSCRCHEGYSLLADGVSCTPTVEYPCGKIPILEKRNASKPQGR
- T1 sequence 2: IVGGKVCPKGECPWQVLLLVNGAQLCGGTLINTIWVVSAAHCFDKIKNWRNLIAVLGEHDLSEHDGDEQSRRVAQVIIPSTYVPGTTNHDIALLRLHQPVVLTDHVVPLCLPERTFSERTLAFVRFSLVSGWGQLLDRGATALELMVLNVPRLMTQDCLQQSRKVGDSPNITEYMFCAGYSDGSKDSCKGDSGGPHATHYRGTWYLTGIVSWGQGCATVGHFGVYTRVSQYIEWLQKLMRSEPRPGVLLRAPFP
- PROTOCOL DETAILS: BLI (Fortebio)
Provide only the numeric value, understood in nM.

Some solved cases for reference:
VH SEQ ID NO 642 / VL SEQ ID NO 382 (antibody, IgG4, V domains shown, humanized 11F2; IgG4 S228P/kappa) VH: QVQLQESGPGLVKPSQTLSLTCTVSGYSISSDSAWSWIRQPPGKGLEWIGYIYYSGSTNYNPSLKSRVTISVDTSKNQFSLKLSSVTAADTAVYYCARSVNYYGNSFAVGYWGQGTSVTVSS VL: EIVLTQSPATLSLSPGERATLSCRASQGLSDYLHWYQQKPGEAPRLLIKYASQPATGIPARFSGSGSGTDFTLTISSLEPEDFAVYYCQNGHSFPLTFGQGTKLEIK: 600
VH SEQ ID NO 530 / VL SEQ ID NO 454 (antibody, IgG4, V domains shown, humanized 11F2; IgG4 S228P/kappa) VH: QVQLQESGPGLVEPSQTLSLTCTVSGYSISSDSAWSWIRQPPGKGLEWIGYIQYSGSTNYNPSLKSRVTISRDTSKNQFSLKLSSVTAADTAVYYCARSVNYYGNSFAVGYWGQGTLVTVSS VL: EIVLTQSPATLSLSPGERATLSCRASQGVSDYLHWYQQKPGEAPRLLIKYASQPATGIPARFSGSGSGTDFTLTISSLEPEDFAVYYCQNGHSFPLTFGQGTKLEIK: 1.1
VH SEQ ID NO 650 / VL SEQ ID NO 422 (antibody, IgG4, V domains shown, humanized 11F2; IgG4 S228P/kappa) VH: QVQLQESGPGLVKPSQTLSLTCTVSGYSISSDSAWSWIRQPPGKKLEWIGYIQYSGSTNYNPSLKSRVTISRDTSKNQFSLKLSSVTAADTAVYYCARSVNYYGNSFAVGPWGQGTLVTVSS VL: EIVLTQSPATLSLSPGERATLSCRASQGVSDYLAWYQQKPGQAPRLLIKYASQPATGIPARFSGSGSGTDFTLTISSLEPEDFAVYYCQQGHSFPLTFGQGTKLEIK: 2600

Recorded Kd of VH SEQ ID NO 514 / VL SEQ ID NO 406 (antibody, IgG4, V domains shown, humanized 11F2; IgG4 S228P/kappa) VH: QVQLQESGPGLVEPSDTLSLTCAVSGYSITSDSAWSWIRQPPGKKLEWIGYIQYSGSTNYNPSLKSRVTMSRDTSKNQFSLKLSSVTALDTAVYYCARSVNYYGNSFAVGYWGQGTLVTVSS VL: EIVLTQSPATLSLSPGERATLSCRASQGVSDYLAWYQQKPGQAPRLLIKYASQPATGIPARFSGSGSGTDFTLTISSLEPEDFAVYYCQNGHSFPLTFGAGTKLEIK , please. 5.3

What about this binder? VH SEQ ID NO 634 / VL SEQ ID NO 358 (antibody, IgG4, V domains shown, humanized 11F2; IgG4 S228P/kappa) VH: QVQLQESGPGLVKPSQTLSLTCTVSGYSISSDSAWSWIRQPPGKGLEWIGYIQYSGSTNYNPSLKSRVTISRDTSKNQFSLKLSSVTAADTAVYYCARSVNYYGNSFAVGYWGQGTLVTVSS VL: EIVLTQSPATLSLSPGERATLSCRASQGISDYLHWYQQKPGQAPRLLIKYTSQPATGIPARFSGSGSGTDFTLTISSLEPEDFAVYYCQNGHSFPLTFGQGTKLEIK 0.82

All values here come from patent US20220064329A1.
